Test system: HCT-116
protocol.notes: Cytotoxicity against p53-positive human HCT116 cells at 10 uM after 72 hrs by MTT assay
Format: functional
Response field label: string, one of Y (Activity strictly below 20%) or N.

Prompt: Regarding `COc1ccc(NCc2nc3cc(OC)c(OC)cc3c(=O)[nH]2)cc1` , kindly confirm whether its Activity is beneath 20%.
Response: N

Prompt: Field: below-cutoff. Rule: recorded Activity strictly less than 20%. Subject: `COc1cc2nc(-c3ccc(C)cc3)nc(N=[N+]=[N-])c2cc1OC`
Response: N

----------
System: HCT-116
protocol.notes: Cytotoxicity against p53-positive human HCT116 cells at 10 uM after 72 hrs by MTT assay
Type: functional
Give measured Activity for each item. Keep answers brief.

Prompt: Read the entry `COc1cc2nc(-c3cccc(C)c3)nc(N)c2cc1OC` and write its reported Activity.
Response: 20%

Prompt: Give Activity for `COc1cc2nc(-c3cccc(NC(C)=O)c3)[nH]c(=O)c2cc1OC`
Response: 16%

Prompt: Annotate the molecule `COc1ccc(-c2nc(N=[N+]=[N-])c3cc(OC)c(OC)cc3n2)cc1` with its measured Activity.
Response: 58%

Prompt: Tell me measured Activity for `CCCCn1c(-c2ccc(NC(C)=O)cc2)nc2cc(OC)c(OC)cc2c1=O` please.
Response: 19%

For every listed record, write down its Activity.
1. COc1cc2nc(-c3cccc(Cl)c3)nc(N)c2cc1OC
2. COc1cccc(-c2nc(N=[N+]=[N-])c3cc(OC)c(OC)cc3n2)c1
3. COc1cc2nc(-c3cccc(C)c3)nc(N=[N+]=[N-])c2cc1OC

Response:
1: 19%; 2: 25%; 3: 55%

Dear colleague, could you send me Activity for each of the items below? Thanks.
1. CCCCn1c(-c2cccc(NS(C)(=O)=O)c2)nc2cc(OC)c(OC)cc2c1=O
2. COc1cc2nc(CNc3ccc(C(=O)O)cc3)[nH]c(=O)c2cc1OC
3. CCCCn1c(-c2ccc(-c3nnn[nH]3)cc2)nc2cc(OC)c(OC)cc2c1=O

Response:
1. 26%
2. 30%
3. 15%
